Source: ChEMBL document CHEMBL1128384

# Species on record: Rattus norvegicus
# test.details: Vasorelaxant potency was assessed by measurement of inhibition of methoxamine-contracted rat aorta
# Type: functional
measurement.name: IC50 (µM)

I: N#CN/C(=N\[C@@H]1c2cc(C#N)ccc2OC[C@H]1O)Nc1ccccc1 (relative stereo)
II: CC1(C)C=C(/N=C(\NC#N)Nc2ccccc2)c2cc(C#N)ccc2O1
III: CC1(C)C[C@H](/N=C(\NC#N)Nc2ccccc2)c2cc(C#N)ccc2O1
IV: CC1(C)Oc2cc(-c3ncco3)c(-c3ncco3)cc2[C@@H](NC(=O)Nc2ccccc2)[C@@H]1O
V: CC(=O)c1ccc2c(c1)[C@@H](/N=C(\NC#N)Nc1ccccc1)[C@H](O)C(C)(C)O2 (relative stereo)
[ask] Sort (5 compounds) by IC50: min first. Reply: labels, ordered per the request.
[reply] IV, V, II, III, I
(IV: 1.4 µM, V: 4 µM, II: 6.9 µM, III: 14 µM, I: 194 µM)

====

# Species on record: Rattus norvegicus
# test.details: Vasorelaxant potency was assessed by measurement of inhibition of methoxamine-contracted rat aorta
# Format: functional
pIC50: −log10 of the molar value.
measurement.name: pIC50

1: CC1(C)C=C(NC(=O)Nc2ccccc2)c2cc(C#N)ccc2O1
2: CC1(C)Oc2ccc(C#N)cc2[C@@H](/N=C(\NC#N)Nc2ccccc2)[C@@H]1O (relative stereo)
3: CC1(C)Oc2cc(-c3ncco3)c(-c3ncco3)cc2[C@@H](/N=C(\NC#N)Nc2ccccc2)[C@@H]1O (relative stereo)
[ask] Sort (3 compounds) by pIC50: min first. Reply: labels, ordered per the request.
[reply] 1, 3, 2
(1: 4.77, 3: 5.06, 2: 5.85)
